B1: TPR 5TU (parent)
chain: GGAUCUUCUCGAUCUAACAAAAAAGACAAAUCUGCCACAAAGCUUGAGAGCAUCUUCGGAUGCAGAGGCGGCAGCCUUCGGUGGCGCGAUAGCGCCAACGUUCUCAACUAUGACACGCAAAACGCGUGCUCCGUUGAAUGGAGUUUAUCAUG

variants of: B1; experiment: polymerase ribozyme fitness, log enrichment relative to wild type (log ratio); higher = more active; in vitro selection for triplet polymerase activity
This sample holds only a part of the variants without activity.
Response key: yes (1) means polymerase ribozyme fitness (log ratio) >= -2; no (0) means polymerase ribozyme fitness (log ratio) < -2.

INSERT INTO results (variant_label, assigned_class) VALUES
  ('C32U G59U G81A', 'no (0)'),
  ('A3U U4A A16U U31A C85U G88A C125U U146G', 'no (0)'),
  ('A21U C36A', 'no (0)'),
  ('C5G U13C A17C G83U U134C A137C', 'no (0)'),
  ('G94U G143U', 'no (0)'),
  ('G50U A60C G84A', 'no (0)'),
  ('A40G U82G', 'yes (1)'),
  ('C54A C87A C114A C116G', 'no (0)'),
  ('C14A A39U A49C C57A C79G G86U', 'no (0)'),
  ('C43A C57G U78G C96A A113G', 'no (0)'),
  ('C85U U139G', 'yes (1)'),
  ('U7G G42C U61A C96U G112C G124C G126C G136A', 'no (0)'),
  ('C96U C105U', 'yes (1)'),
  ('A29C G59U G92C C96A A107G C125U U127G', 'no (0)'),
  ('G42U C76G G80A C95G', 'no (0)'),
  ('C8U A26U A120G C125U', 'no (0)'),
  ('U104G', 'yes (1)'),
  ('C43U U61G A64C U77G C85U A110U C116G', 'no (0)'),
  ('A37G A39U G50A A142U', 'no (0)');
